- System: MDA-MB-435
- assay_comment: NCI tumour cell line growth inhibition, 48 h
Parameter: TGI. Scope: all listed entries.

These solved cases illustrate the format of a correct answer.
CCC(=O)Nc1ccc2c(c1)CN1C(=O)c3ccccc3C1=N2 ... > 100 µM
Cc1nn(-c2ccccc2)c2nc3c(c(C)nn3-c3ccccc3)c(-c3ccccc3Br)c12 ... > 100 µM

Need TGI, item "CCC[CH2][Sn]([CH2]CCC)([O]C(=O)c1cccc(F)c1F)[O][Sn]([CH2]CCC)([CH2]CCC)[O]C(=O)c1cccc(F)c1F"
1.09 µM

Need TGI, item O=C(O)C(Cc1ccccc1)N1C(=O)c2ccccc2C1=O (stereo not given)
> 100 µM

Need TGI, item "COc1ccc(C(=O)c2ccc(OC)cc2OC)cc1"
2.34 µM

---

- System: RXF 393 renal
- assay_comment: NCI tumour cell line growth inhibition, 48 h
Parameter: TGI. Scope: all listed entries.

These solved cases illustrate the format of a correct answer.
CC(=O)O[C@H]1C(=O)[C@@]2(C)[C@H]([C@H](OC(=O)c3ccccc3)[C@]3(O)C[C@H](OC(=O)[C@H](OC(=O)CCC(=O)OC4CCC(S/N=C(N)/N=C(\N)N(C)C)CC4)[C@@H](NC(=O)c4ccccc4)c4ccccc4)C(C)=C1C3(C)C)[C@]1(OC(C)=O)CO[C@@H]1C[C@@H]2O (some centres not stated) ... > 50 µM
COc1cc(-c2ccc(-[n+]3nc(-c4ccc([N+](=O)[O-])cc4)nn3-c3ccc([N+](=O)[O-])cc3)c(OC)c2)ccc1-[n+]1nc(-c2ccc([N+](=O)[O-])cc2)nn1-c1ccc([N+](=O)[O-])cc1 ... 6.08 µM
CC1N(O)C(c2ccccc2)C(c2ccccc2)=[N+]1[O-] (configuration not stated) ... > 100 µM
COc1ccc(/C=c2/[nH]c(=O)/c(=C\c3ccc(OCc4ccccc4)cn3)[nH]c2=O)cc1 ... 83.5 µM

Need TGI, item "C=CCN1C(=O)N/C(=C\c2ccc(Cl)cc2)C1=O"
> 100 µM

Need TGI, item CC1CC(C)C(=O)C(C(=O)CC2CC(=O)NC2=O)C1 (configuration not stated)
> 100 µM

Need TGI, item "Cc1nc(Nc2ccccc2)sc1C(=O)NNC(N)=O"
> 100 µM

---

- Test system: SF-268 CNS
- assay_comment: NCI tumour cell line growth inhibition, 48 h
outcome_measure: GI50

COc1cc(C(=O)O)ccc1NC(=O)[C@@H]1N[C@@H](CC(C)(C)C)[C@](C#N)(c2ccc(Cl)cc2F)[C@H]1c1cccc(Cl)c1F ... 4620 nM
O=C(Nc1cccc(-c2nc3ccccc3[nH]2)c1)c1cccc(NC(=O)c2ccco2)c1 ... 1990 nM

Need GI50, item "C[C@@H](Oc1cc(-c2cnn(C3CC4(CCNCC4)C3)c2)cnc1N)c1c(F)ccc(Cl)c1Cl"
1640 nM

Need GI50, item "Cc1cccc(Oc2ccc(Nc3ncnc4ccc(NC(=O)CN5CCN(C)CC5)cc34)cc2Cl)c1"
1460 nM

Need GI50, item "Cc1cc(S(=O)(=O)/N=C(\N)n2nc(C)c(C)c2C)c(SCc2ccccc2)cc1Cl"
> 100000 nM

Need GI50, item "COc1cc(/C=C/C(=O)CC(=O)/C=C/c2ccc(OC(=O)CCNC34CC5CC(CC(C5)C3)C4)c(OC)c2)ccc1OC(=O)CCNC12CC3CC(CC(C3)C1)C2"
3010 nM

Need GI50, item "COc1ccc2c(c1)C(=O)c1c-2c(N2CCN(C(=O)CN(C)C)CC2)nc2ccccc12"
17300 nM

---

Parameter: GI50. Scope: all listed entries.
- System: NCI-H226 lung
- assay_comment: NCI tumour cell line growth inhibition, 48 h

C=C1C(=O)O[C@H]2[C@H]1CC/C(Cn1cc(Cn3ccc4cc(Cl)ccc43)nn1)=C\CC[C@@]1(C)O[C@@H]21 ... 1.59 µM
COc1cc2c3c(n(CCCn4ccnc4)c(=O)c2cc1OC)-c1ccccc1C3=O ... 0.05 µM
Cc1c(N(C(=O)c2cc(-c3cc(Cl)ccc3C(=O)N3Cc4ccccc4C[C@H]3CN3CCOCC3)n(C)c2C)c2ccc(O)cc2)cc(C#N)n1C ... 14.1 µM

Now examine the next entry.
Need GI50, item "O=C(c1cccs1)c1c(C(F)(F)F)n([O-])c2cc(C(F)(F)F)ccc2[n+]1=O"
0.647 µM

---

- Tested on: SK-MEL-28 melanoma
- assay_comment: NCI tumour cell line growth inhibition, 48 h
outcome_measure: GI50

These solved cases illustrate the format of a correct answer.
O=C(Nc1nc(-c2ccc(Cl)cc2)cs1)c1ccc(O)c(O)c1 ... 3.63 µM
CCOC(=O)c1ccc2[nH]c(Cc3[nH]c4ccc(C(=O)OCC)cc4c3C)c(C)c2c1 ... 5.26 µM
Cc1cc(Nc2ncc(Cl)c(Nc3ccccc3S(=O)(=O)C(C)C)n2)c(OC(C)C)cc1C1CCNCC1 ... 1.22 µM
COc1ccc2c(c1)/C(=C/c1c(-c3ccc(C)cc3)nc3sc(C)cn13)C(=O)N2 ... 23.4 µM
O=C(/C=C/c1ccc2c(c1)OCO2)c1ccccc1 ... 19.5 µM
N#C/C(=C\c1ccc(Br)cc1)n1nnc2cc(F)c(F)cc21 ... 1.84 µM

Now examine the next entry.
Please state recorded GI50 (tested on SK-MEL-28 melanoma) of "COc1cc(/C=C2\C[C@H]3[C@@H]4CC=C5C[C@@H](OC(C)=O)CC[C@]5(C)[C@H]4CC[C@]3(C)[C@H]2OC(C)=O)ccc1OCCCn1ccnc1"
15.9 µM

---

Parameter: GI50. Scope: all listed entries.
- Tested on: OVCAR-5 ovarian
- assay_comment: NCI tumour cell line growth inhibition, 48 h

These solved cases illustrate the format of a correct answer.
Fc1ccc(Nc2ccc3cc(OCCCN4CCOCC4)ccc3n2)cc1F ... 3.02 µM
CCCN1C(=O)/C(=C/c2ccc(O)cc2)SC1=Nc1ccccc1 ... 21.7 µM
CCC[CH2][Sn]([CH2]CCC)([O]C(=O)c1cccc(F)c1F)[O][Sn]([CH2]CCC)([CH2]CCC)[O]C(=O)c1cccc(F)c1F ... 1.47 µM

Please state recorded GI50 (tested on OVCAR-5 ovarian) of "CNC(=O)c1ccc(Nc2nc(OC3CCCC3)c3c(-c4ccc5nc(C)oc5c4)c[nH]c3n2)c(OC)c1"
64.2 µM

Please state recorded GI50 (tested on OVCAR-5 ovarian) of "O=C(c1cccs1)c1c(C(F)(F)F)n([O-])c2cc(C(F)(F)F)ccc2[n+]1=O"
0.432 µM

Please state recorded GI50 (tested on OVCAR-5 ovarian) of "COc1cc2c(cc1OCCCCCN1CCN(c3cc(=O)oc4c(C)c(OC)ccc34)CC1)N=C[C@@H]1CCCN1C2=O"
< 0.0123 µM

Please state recorded GI50 (tested on OVCAR-5 ovarian) of "COc1ccc2c(c1)/C(=C/c1c(-c3ccc(C)cc3)nc3sc(C)cn13)C(=O)N2"
16.6 µM

Please state recorded GI50 (tested on OVCAR-5 ovarian) of "C/C(=C\c1ccn(-c2ccc(N)cc2C(F)(F)F)n1)[C@@H]1C[C@@H]2O[C@]2(C)CCC[C@H](C)[C@H](O)[C@@H](C)C(=O)C(C)(C)[C@@H](O)CC(=O)O1"
0.519 µM

---

- Tested on: SF-295 CNS
- assay_comment: NCI tumour cell line growth inhibition, 48 h
outcome_measure: TGI

O=C(/C=C(\O)C(=O)O)/C=C(\O)c1ccccc1Cl ... > 100 µM
Cc1nn(-c2ccccc2)c2nc3c(c(C)nn3-c3ccccc3)c(-c3ccccc3Br)c12 ... > 100 µM
C=C1C(=O)O[C@H]2[C@H]1CC/C(Cn1cc(Cn3ccc4cc(Cl)ccc43)nn1)=C\CC[C@@]1(C)O[C@@H]21 ... 17 µM

Please state recorded TGI (tested on SF-295 CNS) of "NC(=S)Nc1nnc(-c2ccc(-c3nnc(NC(N)=S)o3)cc2)o1"
> 100 µM

Please state recorded TGI (tested on SF-295 CNS) of "CCn1cc(C(=O)O)c(=O)c2cc(F)c(N3CCN(Cn4c(O)c(N=NC(=O)c5ccncc5)c5cc(Cl)ccc54)CC3)cc21"
> 100 µM

Please state recorded TGI (tested on SF-295 CNS) of "C=CCOCCCC(=O)C(=[N+]=[N-])C(=O)OC"
> 100 µM

Please state recorded TGI (tested on SF-295 CNS) of "CC(C)(C)c1cc(N=NC(=S)NCc2ccccc2)cc(C(C)(C)C)c1O"
> 100 µM

Please state recorded TGI (tested on SF-295 CNS) of COCC1OCCN1C (stereo not given)
> 100 µM

Please state recorded TGI (tested on SF-295 CNS) of "CCOC(=O)c1ccc2[nH]c(Cc3[nH]c4ccc(C(=O)OCC)cc4c3C)c(C)c2c1"
13.5 µM

Please state recorded TGI (tested on SF-295 CNS) of "CN1CCN(Cc2ccc(NC(=O)c3[nH]ncc3Nc3ccnc4ccsc34)cc2)CC1"
14.2 µM
